meta.source: patent US20150353933

- systemTested: T1, midkine (AP-MK) (Homo sapiens, UniProt P21741 P21741:23-143)
- T1 chain: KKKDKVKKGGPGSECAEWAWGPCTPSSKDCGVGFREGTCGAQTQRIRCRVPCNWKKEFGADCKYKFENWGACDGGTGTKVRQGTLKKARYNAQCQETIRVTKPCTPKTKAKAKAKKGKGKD
- assayInfo: inhibition; AP-MK binding to TNB1 cells
- measurementConditions: tags: alkaline phosphatase fusion, APtag-5 vector (GenHunter), 293T culture supernatant
Listed here are binders together with their documented pIC50.
Hey, just a heads up that pIC50 is the negative log base 10 of the concentration in molar.

Below, 3 binders whose answers are already recorded.
// sample GCCAUCGCAAUGGUGAGUGGUUUAUCCGCCUGCGCAUGGC (ssRNA, 2'-OMe at 1-3 and 38-40; 2'-F at all other pyrimidines; other purines 2'-OH) [SEQ ID NO: 7-1] , its pIC50 was 7.74

According to the records, this binder GCCAUCGCAAUGGUGAGUGGUUUAUCCGCCUGCGCAUGGC (ssRNA, 5' 40PEG2ts; 3' idT; 2'-OMe at 1-3 and 38-40; 2'-F at all other pyrimidines) [SEQ ID NO: 7-2] displays pIC50 of 7.59

Record GCCAUCGCAAUGGUGAGUGGUUUAUCCGCCUGCGCAUGGC (ssRNA, 5' 40PEG2ts; 3' idT; 2'-OMe at C2,C3,C40 and all purines except G15,A16,G17,A24 (2'-OH); 2'-F at all other pyrimidines) [SEQ ID NO: 7-4] . Reported pIC50: 7.74

# context switch: different binder, same pIC50
For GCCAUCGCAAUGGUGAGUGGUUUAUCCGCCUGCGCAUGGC (ssRNA, 5' 40PEG2ts; 3' idT; 2'-OMe at 1-13,19,20,23,28,30-40; 2'-F at U14,U18,U21,U22,U25,C26,C27,C29; 2'-OH at G15,A16,G17,A24) [SEQ ID NO: 7-3] the binder record lists pIC50 as 7.96
